The values you see were collected from paper PMC10824102.

system.tested: full-length 6x-His-tagged human G3BP1 (human, UniProt Q13283 1-466)
Sequence (Q13283 whole entry): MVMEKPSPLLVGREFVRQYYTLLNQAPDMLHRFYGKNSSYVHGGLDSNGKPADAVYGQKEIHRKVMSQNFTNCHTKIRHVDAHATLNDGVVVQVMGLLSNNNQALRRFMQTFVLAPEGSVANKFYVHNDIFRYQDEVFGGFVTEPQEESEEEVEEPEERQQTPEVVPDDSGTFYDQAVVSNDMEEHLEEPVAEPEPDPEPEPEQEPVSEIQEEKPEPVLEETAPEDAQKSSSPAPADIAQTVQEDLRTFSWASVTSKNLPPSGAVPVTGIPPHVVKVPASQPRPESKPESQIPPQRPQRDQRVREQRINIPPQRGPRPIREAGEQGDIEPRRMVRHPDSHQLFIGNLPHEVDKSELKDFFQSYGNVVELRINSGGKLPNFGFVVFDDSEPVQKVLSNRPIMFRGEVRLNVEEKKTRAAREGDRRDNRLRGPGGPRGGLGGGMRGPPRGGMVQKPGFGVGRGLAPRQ
test: FRET; competition with FAM-labeled USP10 FGDF peptide probe

{"columns": ["binder", "IC50 [µM]"],
 "data": [
  ["LTFGDFDEHEVDALASGITFGDFDD [nsP3 25-mer peptide]", 3.1]
]}
